- System Tested: human adenosine A3 receptor (Homo sapiens, UniProt P0DMS8)
- Sequence (P0DMS8 whole entry): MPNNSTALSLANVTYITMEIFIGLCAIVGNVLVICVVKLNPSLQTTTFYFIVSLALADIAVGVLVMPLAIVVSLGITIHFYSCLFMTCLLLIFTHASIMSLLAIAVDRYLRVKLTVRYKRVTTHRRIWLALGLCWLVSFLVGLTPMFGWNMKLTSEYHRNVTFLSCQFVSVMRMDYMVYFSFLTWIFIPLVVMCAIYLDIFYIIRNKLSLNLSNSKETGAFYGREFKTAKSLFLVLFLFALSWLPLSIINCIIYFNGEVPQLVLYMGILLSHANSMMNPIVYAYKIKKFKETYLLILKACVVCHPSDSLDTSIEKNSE
- Test Name: Reporter gene (CRE/SPAP) agonist assay in CHO cells, adenosine A3 receptor
- Condition Set: CHO cells with human A3 receptor; inhibition of forskolin-stimulated SPAP production; potency relative to NECA=1
Endpoint: A3 ECR (equipotent concentration ratio relative to NECA=1)

Solved entries:
1) O[C@@H]1[C@H](O)[C@@H](COC(F)(F)F)O[C@H]1n1cnc2c(N[C@H]3CCOC3)ncnc21 :: >63
2) O[C@@H]1[C@H](O)[C@@H](COC(F)(F)F)O[C@H]1n1cnc2c(N[C@H]3CCC[C@@H]3O)ncnc21 :: >150
3) CC(C)(C)Nc1ncnc2c1ncn2[C@@H]1O[C@H](COC(F)(F)F)[C@@H](O)[C@H]1O :: >207
4) CNS(=O)(=O)CCNc1ncnc2c1ncn2[C@@H]1O[C@H](COC(F)(F)F)[C@@H](O)[C@H]1O :: >212
5) CCOC(=O)N1CCC(Nc2nc(C)nc3c2ncn3[C@@H]2O[C@H](COC(F)(F)F)[C@@H](O)[C@H]2O)CC1 :: >134

Moving on to another compound below.
Data request: I'd like to know its A3 ECR (equipotent concentration ratio relative to NECA=1). The compound in question is O[C@@H]1[C@H](O)[C@@H](COC(F)(F)F)O[C@H]1n1cnc2c(N[C@H]3CCC[C@@H]3F)ncnc21
Data returned: >226

----------
Entries and their A1 ECR (equipotent concentration ratio relative to NECA=1)
- System Tested: human adenosine A1 receptor (Homo sapiens, UniProt P30542)
- Construct: expressed in transfected cells; host or cells: Chinese hamster ovary (CHO) cells containing CRE/SPAP/HYG reporter elements
- Sequence (P30542 whole entry): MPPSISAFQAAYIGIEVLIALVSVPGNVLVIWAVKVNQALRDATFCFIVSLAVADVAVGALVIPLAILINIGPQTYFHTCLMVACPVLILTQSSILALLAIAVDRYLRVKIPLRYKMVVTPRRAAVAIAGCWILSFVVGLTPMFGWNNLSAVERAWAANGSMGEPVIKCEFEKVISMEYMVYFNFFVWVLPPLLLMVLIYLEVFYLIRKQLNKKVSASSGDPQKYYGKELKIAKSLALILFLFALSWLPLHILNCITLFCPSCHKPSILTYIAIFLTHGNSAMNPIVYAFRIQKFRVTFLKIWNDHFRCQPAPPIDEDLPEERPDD
- Test Name: Reporter gene (CRE/SPAP) agonist assay in CHO cells, adenosine A1 receptor
- Type: cell-based
- Condition Set: CHO cells with human A1 receptor; inhibition of forskolin-stimulated SPAP production; potency relative to NECA=1
Quick one: just the number, no unit, thanks!

Solved entries:
1) CCOC(=O)N1CCC(Nc2nc(C)nc3c2ncn3[C@@H]2O[C@H](COC(F)(F)F)[C@@H](O)[C@H]2O)CC1 :: 51.70
2) CC(=O)NCCNc1ncnc2c1ncn2[C@@H]1O[C@H](COC(F)(F)F)[C@@H](O)[C@H]1O :: 12.52

Moving on to another compound below.
Data request: I'd like to know its A1 ECR (equipotent concentration ratio relative to NECA=1). The compound in question is O[C@@H]1[C@H](O)[C@@H](COC(F)(F)F)O[C@H]1n1cnc2c(Nc3cccc(F)c3)ncnc21
Data returned: 23.2
